Hey, just so you know, these numbers are from paper PMC12196458.

# target_under_test: bovine GDH (Bos taurus, UniProt P00366)
# Construct: purchased
# Sequence (P00366 58-558): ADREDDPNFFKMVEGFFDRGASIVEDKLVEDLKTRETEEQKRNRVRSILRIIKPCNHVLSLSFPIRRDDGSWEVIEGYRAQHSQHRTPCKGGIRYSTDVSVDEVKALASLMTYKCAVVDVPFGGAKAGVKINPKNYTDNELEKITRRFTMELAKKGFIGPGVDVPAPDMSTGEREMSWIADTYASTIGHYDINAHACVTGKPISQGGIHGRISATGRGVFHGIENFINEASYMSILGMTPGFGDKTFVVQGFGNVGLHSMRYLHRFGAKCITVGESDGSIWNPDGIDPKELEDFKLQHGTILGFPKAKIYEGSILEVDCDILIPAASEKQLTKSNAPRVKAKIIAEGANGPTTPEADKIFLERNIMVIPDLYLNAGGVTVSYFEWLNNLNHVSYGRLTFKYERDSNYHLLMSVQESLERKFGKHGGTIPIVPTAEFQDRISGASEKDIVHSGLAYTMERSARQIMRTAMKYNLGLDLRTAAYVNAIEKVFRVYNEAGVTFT
# test_summary: GDH inhibition assay (EZMTT detection)
# Type: biochemical
# experimental_context: bovine GDH 2.5 mg/mL
# Procedure: Since both GTP and EGCG are known allosteric GDH inhibitors, we tested their dose-dependent inhibition of different levels of GDH protein. […] EGCG inhibition of GDH is less affected by the GDH enzyme concentration. […] After 0.5 h pre-incubation, a mixture of Glu (10 mM final), NADP^+ ([…]), and the EZMTT detection reagent were added to each well, and the reaction was carried out at room temperature for 1 h before the absorbance measurement at 450 nm. […]

| structure_smiles_string | IC50 / mM |
| --- | --- |
| O=C(O[C@@H]1Cc2c(O)cc(O)cc2O[C@@H]1c1cc(O)c(O)c(O)c1)c1cc(O)c(O)c(O)c1 | 0.138 |
| Nc1nc2c(ncn2[C@@H]2O[C@H](COP(=O)(O)OP(=O)(O)OP(=O)(O)O)[C@@H](O)[C@H]2O)c(=O)[nH]1 | 16.9 |

----------
# target_under_test: bovine GDH (Bos taurus)
# Construct: purchased
# test_summary: GDH inhibition assay (EZMTT detection)
# Type: biochemical
# experimental_context: bovine GDH 0.3 mg/mL
pIC50: −log10 of the molar value.
Below is a list of entries, each paired with its recorded pIC50 value.
assay_metric: pIC50

| compound | recorded_result |
| --- | --- |
| O=C(O[C@@H]1Cc2c(O)cc(O)cc2O[C@@H]1c1cc(O)c(O)c(O)c1)c1cc(O)c(O)c(O)c1 [EGCG] | 5.57 |
| Nc1nc2c(ncn2[C@@H]2O[C@H](COP(=O)(O)OP(=O)(O)OP(=O)(O)O)[C@@H](O)[C@H]2O)c(=O)[nH]1 [GTP] | 4.80 |

----------
# target_under_test: hGDHH454Y (Homo sapiens, UniProt P00367, H507Y)
# Sequence (P00367 54-558 H507Y): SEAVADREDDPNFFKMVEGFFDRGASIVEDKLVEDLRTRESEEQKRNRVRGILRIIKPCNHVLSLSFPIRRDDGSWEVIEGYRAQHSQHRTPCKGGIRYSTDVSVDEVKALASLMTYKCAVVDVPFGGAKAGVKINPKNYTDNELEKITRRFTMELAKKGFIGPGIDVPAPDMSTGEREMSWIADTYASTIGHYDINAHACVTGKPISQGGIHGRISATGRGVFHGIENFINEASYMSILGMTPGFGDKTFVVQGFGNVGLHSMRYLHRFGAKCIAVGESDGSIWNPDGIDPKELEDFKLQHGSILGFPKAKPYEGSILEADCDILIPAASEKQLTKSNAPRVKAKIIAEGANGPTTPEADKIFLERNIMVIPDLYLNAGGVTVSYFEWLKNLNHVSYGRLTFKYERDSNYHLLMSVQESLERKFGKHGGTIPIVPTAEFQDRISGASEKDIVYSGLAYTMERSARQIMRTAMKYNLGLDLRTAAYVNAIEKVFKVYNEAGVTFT
# test_summary: Biolayer interference-based binding assay (Ni-NTA biosensor), hGDHH454Y
# experimental_context: His-tagged hGDHH454Y 20 μg/mL on Ni-NTA biosensor; read-out: estimated KD
# Description: After immobilization of His-tagged wild-type GDH or hGDHH454Y (20 μg/mL) on a Ni-NTA biosensor, the probe was immersed in a series of dilutions of EGCG to measure binding. […]

| compound | target_under_test | Kd |
| --- | --- | --- |
| O=C(O[C@@H]1Cc2c(O)cc(O)cc2O[C@@H]1c1cc(O)c(O)c(O)c1)c1cc(O)c(O)c(O)c1 [EGCG] | hGDHH454Y (Homo sapiens, UniProt P00367, H507Y) | 68 µM |

----------
# target_under_test: wild-type hGDH (Homo sapiens)
# Sequence (P00367 54-558): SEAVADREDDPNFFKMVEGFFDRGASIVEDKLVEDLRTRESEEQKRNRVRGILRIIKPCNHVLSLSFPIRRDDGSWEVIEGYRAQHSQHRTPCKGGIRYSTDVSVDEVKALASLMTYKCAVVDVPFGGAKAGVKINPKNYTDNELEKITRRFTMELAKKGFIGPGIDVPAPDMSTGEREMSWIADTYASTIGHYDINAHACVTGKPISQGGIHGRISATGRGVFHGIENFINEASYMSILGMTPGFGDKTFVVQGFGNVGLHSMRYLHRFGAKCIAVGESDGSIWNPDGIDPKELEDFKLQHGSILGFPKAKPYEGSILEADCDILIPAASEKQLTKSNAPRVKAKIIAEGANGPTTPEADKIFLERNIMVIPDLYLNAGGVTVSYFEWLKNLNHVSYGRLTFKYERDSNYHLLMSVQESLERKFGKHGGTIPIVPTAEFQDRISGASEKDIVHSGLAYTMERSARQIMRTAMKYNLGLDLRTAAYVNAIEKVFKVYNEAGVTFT
pKd: −log10 of the molar value.
assay_metric: pKd

| molecule | recorded_result |
| --- | --- |
| O=C(O[C@@H]1Cc2c(O)cc(O)cc2O[C@@H]1c1cc(O)c(O)c(O)c1)c1cc(O)c(O)c(O)c1 [EGCG] | 5.38 |
